Please go through the items and note down their Activation.
target-of-assay: UniProtKB P08588
Sequence (P08588 whole entry, looked up): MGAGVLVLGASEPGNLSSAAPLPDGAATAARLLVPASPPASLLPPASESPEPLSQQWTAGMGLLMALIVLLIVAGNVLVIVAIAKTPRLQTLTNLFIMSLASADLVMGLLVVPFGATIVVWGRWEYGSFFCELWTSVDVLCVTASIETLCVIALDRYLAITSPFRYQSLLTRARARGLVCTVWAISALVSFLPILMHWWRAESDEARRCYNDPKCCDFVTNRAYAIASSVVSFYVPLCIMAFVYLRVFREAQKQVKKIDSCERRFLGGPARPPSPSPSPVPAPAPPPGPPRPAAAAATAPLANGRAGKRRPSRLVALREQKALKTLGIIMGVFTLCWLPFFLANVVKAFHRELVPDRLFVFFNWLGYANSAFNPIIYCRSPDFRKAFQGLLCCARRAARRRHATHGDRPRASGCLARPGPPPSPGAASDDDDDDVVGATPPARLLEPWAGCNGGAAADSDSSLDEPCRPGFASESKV
run-description: Percent of maximal stimulation was determined as adenylate cyclase activation using isoproterenol as standard at a concentration of 10000 nM
Assay type: functional
Reply numerically in %, unit not repeated.

Query: Activation for "N#CN/C(=N\c1ccc2c(c1)CCN2c1nc(-c2ccc(OC(F)(F)F)cc2)cs1)Nc1ccc2cc(CCNC[C@H](O)c3cccnc3)ccc2c1" ?
Result: 2

Query: Also, "N#CN/C(=N\c1ccc2c(c1)N(c1nc(-c3ccc(OC(F)(F)F)cc3)cs1)CC2)Nc1ccc(CCNC[C@H](O)c2cccnc2)cc1" please.
Result: 27

Query: Also, "N#CN/C(=N\c1cccc2c1CCN2c1nc(-c2ccc(OC(F)(F)F)cc2)cs1)Nc1ccc(CCNC[C@H](O)c2cccnc2)cc1" please.
Result: 6

Query: Also, "CCCCCCCCc1csc(N2CCc3c(N/C(=N/c4ccc(CCNC[C@H](O)c5cccnc5)cc4)NC#N)cccc32)n1" please.
Result: 11
